- TGT: Virion infectivity factor (Human immunodeficiency virus type 1 group M subtype B (isolate BH10)) + Virion infectivity factor (Human immunodeficiency virus type 1 group M subtype B (isolate BRU/LAI)) + Virion infectivity factor (Human immunodeficiency virus type 1 group M subtype B (isolate PCV12)) + Virion infectivity factor (Human immunodeficiency virus type 1 group M subtype B (isolate HXB2)) + DNA dC->dU-editing enzyme APOBEC-3G (Homo sapiens) (UniProt P69720+P69721+P69722+P69723+Q9HC16)
- EXPERIMENT_NOTES: inhibitors of Vif binding to APOBEC3G peptide, primary screen, biochemical, TR-FRET, GST-Vif 1-94, biotin-A3G peptide, dose response retest (AID 1117319);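 note: Vif residues 1-94 fused to GST binding biotinylated APOBEC3G peptide 110-148; 0% = full assay without inhibitor and 100% = GST in place of GST-Vif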
- RUN_CONDITIONS: hits give high values
Hit rate of the full screen: of about 260,000 compounds, about 1,500 (0.58%) were called active. About 5% were inconclusive and are not listed. These entries were drawn from the full list. Results with a measured potency or affinity are listed apart.
READOUT: inhibition (%)
Answers are plain numbers, in %.

Here's what some known entries look like.
compound=COCCNC(=O)/C(C#N)=C/c1ccc(OC(=O)c2cccs2)c(OC)c1 readout=inhibition unit_label=% assay_result=12.9
compound="O=C1C=C(c2ccccc2)C(c2ccccc2)C1 (stereo not given)" readout=inhibition unit_label=% assay_result=0.24
compound=O=C1N=C(N2CCCC2)S/C1=C\c1ccccc1 readout=inhibition unit_label=% assay_result=27.9
compound=Cc1ccc(Sc2ncccc2C(=O)O)cc1 readout=inhibition unit_label=% assay_result=1.95
compound="CC(C)(C)OC(=O)N1CC=C2C(C#N)=C(N)C(C#N)(C#N)C(c3cccs3)C2C1 (stereo not given)" readout=inhibition unit_label=% assay_result=5.47

Please go through the list and note inhibition for each compound.
1. Cc1noc(C)c1S(=O)(=O)N1CCC(C(=O)NC2CCN(Cc3ccccc3)CC2)CC1
2. CC(=O)Oc1ccc2c(c1)C(=O)c1ccccc1CO2
3. O=C(Oc1ccc2c(c1)C(=O)c1ccccc1CO2)c1ccccc1

1. 28.3
2. 7.33
3. 1.85

Each compound below has a reported value. Please supply its inhibition.
1. O=C(Nc1cccc2ccccc12)N1CCN(Cc2ccccc2)CC1
2. O=C1N=C(N2CCOCC2)S/C1=C\c1ccc(-c2ccccc2Cl)o1
3. NC1=NC(=O)C(=Cc2ccccc2)S1
4. O=C1N=C(N2CCOCC2)S/C1=C/c1cccs1
5. COc1ccc(-c2c(C#N)cnc(C)c2C)c(O)c1OC
6. Cc1cccc(N2C(=O)c3ccc(Br)cc3C2=O)n1

[20.5, 21.8, 1.08, 1.92, -2.84, 1.11]

// each listed compound needs a value for inhibition
1. c1ccc(OCCCCN2CCOCC2)cc1
2. NC1=NC(=O)/C(=C/c2cccs2)S1
3. O=C(NCC(O)c1ccccc1)c1cccs1 (stereo not given)
4. COc1ccccc1CNC(=O)CNC(=O)Cn1cnc2ccccc2c1=O

1. 16.5
2. 10
3. -7.1
4. 8.94

State recorded inhibition for all listed compounds.
1. CC(=O)c1cccc(N/C=C\c2nnnn2-c2ccc(F)cc2)c1
2. Nc1ccc(C(=O)N(CCO)CCO)cc1
3. CCc1cccc(NC(=O)C2CCN(S(=O)(=O)c3c(C)noc3C)CC2)c1

1. -15.5
2. 2.26
3. -1.11
